Sourced from PubChem BioAssay (NCI)

Below: a set of entries, each annotated with reported growth.
- Test system: U251 CNS
- experimental protocol: NCI-60 one-dose screen, 48 h (100 = growth as untreated, 0 = no growth, -100 = all killed)
- details: 10 µM
About 83,000 compounds went through this panel and 20% of them were active in at least one assay; those are over-represented in the sample as a whole.
Give just the numeric value; % need not be written.

molecule	unit label	experimental value
O=C(c1ccccc1)C(Nc1ccccc1)c1ccccc1 (configuration not stated)	%	89.6
C/C(=N\NC(=O)c1sc(=S)n(C)c1N)c1cc2ccccc2o1	%	56.5

Lab note: next molecule to report on.
What value of measured growth is listed for "N#C/C(=C\N1C(=O)/C(=C/c2cccc([N+](=O)[O-])c2)SC1=S)c1nc2ccccc2s1" ?
69

* * *

- Tested on: HCT-116 colon
- experimental protocol: NCI-60 one-dose screen, 48 h (100 = growth as untreated, 0 = no growth, -100 = all killed)
- details: 10 µM
About 83,000 compounds went through this panel and 20% of them were active in at least one assay; those are over-represented in the sample as a whole.
value kind: growth (%)
Give just the numeric value; % need not be written.

compound	growth (%)
N#Cc1c2c([nH]c(=O)c1C(N)=O)CCCCC2	91.8

What value of measured growth is listed for "Cc1ccc(NC(=O)/C=N/O)cc1C" ?
98.1

Try the compound "COc1ccc(/C=C(\c2cc(OC)c(OC)c(OC)c2)c2nnc(-c3cccs3)o2)cc1"
66.4

Try the compound "C=CCn1ccc(=O)nc1SC"
112

Try the compound O=[N+]([O-])C1CC2C=CC1C2 (stereo not given)
107

Try the compound "CC(=O)Nc1nc(C)c(C(=O)N/N=C/c2cccn2C)s1"
111

Try the compound COc1ccc(C2C=C(c3ccc(Cl)cc3)N=C3SC=CN32)c(Br)c1 (stereo not given)
54

Try the compound "O=C(Nc1cccc(-c2nc3ccccc3[nH]2)c1)c1cccc(NC(=O)c2ccco2)c1"
58.4

Try the compound "CC(C)OP(=O)(O)c1ncc(-c2ccc(C(F)(F)F)cc2)c(NC2CCCCCC2)n1"
53.1

* * *

- Tested on: MDA-MB-435 melanoma
- experimental protocol: NCI-60 one-dose screen, 48 h (100 = growth as untreated, 0 = no growth, -100 = all killed)
- details: 10 µM
The panel holds about 83,000 compounds, 20% with a hit somewhere; the sample as a whole holds those more often.
value kind: growth (%)
Give just the numeric value; % need not be written.

Record excerpt, results attached:
compound	unit label	growth
COc1ccc2oc(=O)cc(C(c3ccc[nH]3)c3ccc[nH]3)c2c1	%	-24.3
C[C@@H]1N=C(c2ccc(Br)cc2)Nc2nc3ccccn3c2C1=O	%	-13
Nc1nsc(C(=O)c2ccc(O)cc2)n1	%	104
COc1ccc(C2C=C(c3ccc(Cl)cc3)N=C3SC=CN32)c(Br)c1 (stereo not given)	%	69.2
CCOC(=O)Nc1ccc2c(c1)C(=O)N(CC)c1ccccc1O2	%	-17.1
CCCc1c(CC)c(=N)c2ccccc2n1C	%	7.61

Lab note: next compound to report on.
What value of measured growth is listed for CCC(CCNc1cc(OC)cc2cccnc12)CN1C(=O)c2ccccc2C1=O (stereo not given) ?
107

* * *

- Tested on: ACHN renal
- experimental protocol: NCI-60 one-dose screen, 48 h (100 = growth as untreated, 0 = no growth, -100 = all killed)
- details: 10 µM
About 83,000 compounds went through this panel and 20% of them were active in at least one assay; those are over-represented in the sample as a whole.
Below: a set of entries, each annotated with reported growth.
Give just the numeric value; % need not be written.

Record excerpt, results attached:
compound	growth [%]
CCc1ccc(-c2nnc(COc3ccc(-c4nc5ccc(C)cc5[nH]4)cc3OC)o2)cc1	-8.12
COc1ccc(-c2nc(SCC(=O)c3ccc(Br)cc3)[nH]c(=O)c2C#N)cc1	122
C/C(=N\NC(=O)c1sc(=S)n(C)c1N)c1cc2ccccc2o1	59.7
Cn1c([N+](=O)[O-])cnc1C=C1C(=O)c2ccccc2C1=O	37.4
COc1cc(/C=C/C(=O)c2cc(-c3ccc(F)cc3)ccc2O)cc(OC)c1OC	76.8
Cc1cccc2c(Nc3ccc(NS(C)(=O)=O)cc3)c3ccc([N+](=O)[O-])cc3nc12	-11.4

What value of measured growth is listed for "O=C(Nc1cccc(Cl)c1)Nc1cc2ncncc2cc1OCc1cccc(F)c1" ?
3.47

Try the compound "COc1ccccc1S(=O)(=O)Nc1ccc2c(c1)CN(C)C(=O)N2"
34.7

Try the compound CC(=O)Oc1ccc(C2=Cc3ccc(OC(C)=O)cc3OC2C)cc1 (stereo unspecified)
10

Try the compound "Clc1cc(Cl)c(OCCCCCCN2CCNCC2)c(Cl)c1"
47.2

Try the compound "Cc1nc2scc(-c3ccc(Cl)cc3)n2c(=O)c1CCN1CCOCC1"
89.4

Try the compound "COc1cccc2c1O/C(=C\c1ncc([N+](=O)[O-])n1C)C2=O"
7.42

Try the compound "COc1cccc(-c2nnc(COc3ccc(-c4nc5ccc(C)cc5[nH]4)cc3OC)o2)c1"
25.9

Try the compound "O=NN(CCCl)C(=O)NCc1ccc(-c2ccc(CNC(=O)N(CCCl)N=O)cc2)cc1"
105

Try the compound "Cc1ccc(/C=C2\CN(Cc3cn(CCNc4ccnc5cc(Cl)ccc45)nn3)C/C(=C\c3ccc(C)cc3)C2=O)cc1"
-16.9
